# testMethodNotes: aqueous solubility (solubility of the product in water)
# Type: physicochemical
# statedConditions: insufficiently water-soluble for toxicity testing in aqueous solution; read-out: water solubility
measuredProperty: solubility

Q: Record request: solubility value, item COc1c(I)cc(I)c(NC(=O)N(C)C[C@H](O)[C@@H](O)[C@H](O)[C@H](O)CO)c1I [reference compound]
Result: < 10000 µg/mL

###

# testMethodNotes: aqueous solubility (solubility of the product in water)
# Type: physicochemical
# statedConditions: water; read-out: solubility of the product in water
measuredProperty: solubility

Q: Record request: solubility value, item `CNC(=O)c1c(I)c(NC(C)=O)c(I)c(NC(=O)N[C@@H](C=O)[C@@H](O)[C@H](O)[C@H](O)CO)c1I`
Result: 180 to 200 mg/mL

Q: Also `CNC(=O)c1c(I)c(NC(=O)N[C@@H](C=O)[C@@H](O)[C@H](O)[C@H](O)CO)c(I)c(C(=O)N(C)C)c1I` ?
Result: ≥ 1000 mg/mL

Q: Also `CNC(=O)c1c(I)c(NC(=O)N(C)C[C@H](O)[C@@H](O)[C@H](O)[C@H](O)CO)c(I)c(C(=O)N(C)C)c1I` ?
Result: ≥ 1000 mg/mL

Others:
Q: Record request: solubility value, item `CNC(=O)c1c(I)c(NC(=O)N[C@@H](C=O)[C@@H](O)[C@H](O)[C@H](O)CO)c(I)c(N(C)C(C)=O)c1I`
Result: ≥ 1000 mg/mL

###

# testMethodNotes: aqueous solubility (solubility of the product in water)
# Type: physicochemical
# statedConditions: water; depending upon the method employed; read-out: aqueous solubility
measuredProperty: solubility

Q: Record request: solubility value, item `CNC(=O)c1c(I)c(NC(=O)N[C@@H](C=O)[C@@H](O)[C@H](O)[C@H](O)CO)c(I)c(C(=O)NC)c1I`
Result: 27 to 80 mg/mL

###

# System: Sprague-Dawley rats
# testMethodNotes: Intracisternal Toxicity in Rats
# Format: in vivo, rat (Sprague-Dawley, Carworth)
# statedConditions: two day observation, Example IV at 7.43% iodine, Example V at 13.3% iodine
measuredProperty: LD50 Intracisternal (Rats) (mg. I/kg. body wt.)
Please respond with the number in mg. I/kg. body wt. and leave the unit unwritten.

Examples from the recorded data:
Q: Form field - read-out: LD50 Intracisternal (Rats); system: Sprague-Dawley rats; submitted item: `CNC(=O)c1c(I)c(NC(=O)N(C)C[C@H](O)[C@@H](O)[C@H](O)[C@H](O)CO)c(I)c(C(=O)N(C)C)c1I`
Result: 21

Q: Also `CNC(=O)c1c(I)c(NC(C)=O)c(I)c(NC(=O)N[C@@H](C=O)[C@@H](O)[C@H](O)[C@H](O)CO)c1I` ?
Result: 62

Next:
Q: Form field - read-out: LD50 Intracisternal (Rats); system: Sprague-Dawley rats; submitted item: `CNC(=O)c1c(I)c(NC(=O)N[C@@H](C=O)[C@@H](O)[C@H](O)[C@H](O)CO)c(I)c(C(=O)N(C)C)c1I`
Result: 17
